Hello, the source for this data is patent US20250313625A1, in case you need it.

- system under test: T1, human LAG3 ECD recombinant protein (plate coated, tag not stated) (human, UniProt P18627 23-450)
- T1 construct: extracellular domain
- T1 sequence (looked up): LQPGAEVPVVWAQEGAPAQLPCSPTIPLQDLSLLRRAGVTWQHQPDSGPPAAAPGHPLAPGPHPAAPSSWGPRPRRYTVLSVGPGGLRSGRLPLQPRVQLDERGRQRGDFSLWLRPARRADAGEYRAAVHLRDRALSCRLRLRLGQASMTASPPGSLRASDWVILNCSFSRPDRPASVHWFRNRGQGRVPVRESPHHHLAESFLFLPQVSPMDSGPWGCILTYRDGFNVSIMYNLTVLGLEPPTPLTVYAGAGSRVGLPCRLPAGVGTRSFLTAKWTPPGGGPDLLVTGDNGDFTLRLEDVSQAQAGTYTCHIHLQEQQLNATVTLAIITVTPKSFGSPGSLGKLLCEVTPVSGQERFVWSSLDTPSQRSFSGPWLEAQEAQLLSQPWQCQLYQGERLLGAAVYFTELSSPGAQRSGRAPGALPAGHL
- measurement description: competitive ELISA format I: His-FGL1 binding to coated LAG3 ECD

binder	measure unit	Blocking ratio at 66.7 nM (%)
035c (antibody, human IgG4, V domains shown, human IgG4 S228P / kappa chimeric antibody; also called chimeric antibody 035; not shown: human kappa light chain constant region (pcDNA3.4-hIgGk vector)) VH: QVQLQQSGAELARPGASVKLSCKASGYSFTSYGINWVKQRTGQGLEWIGEIYPRSGNTYYNEKFKDKATLTADKSSSTAYMELRSLTSEDSAVYFCARGGTYDGYYYAMDFWGQGTSVTVSS VL: DIVLTQSPASLAVSLGQRATISCRASESVDNFGSSFLHWYQQKPGQAPKLLIYRASNLESGIPARFSGSGSRTDFTLTINPVETDDVATYYCQQVNKDPRTFGGGTKLEIK	%	24.3
057c (antibody, human IgG4, V domains shown, human IgG4 S228P / kappa chimeric antibody; also called chimeric antibody 057; not shown: human kappa light chain constant region (pcDNA3.4-hIgGk vector)) VH: QVQLQQSGAELARPGASVKLSCKASGFSFTSYGINWVKQRTGQGLEWIGEIYPRSGNTYYNEKLKGEATLTADRSSSTAYMELRSLTSEDSAVYFCARGGTYDGYYYAMDYWGQGTSVTVSS VL: NIVLTQSPASLAVSLGQRATISCRASESVDNFGSSFMHWYQQKPGQAPKLLIYRASNLESGIPARFGGSGSGTDFTLTIDPVETDDVATYYCQQVNKDPRTFGGGTKLEIK	%	33.3
023c (antibody, human IgG4, V domains shown, human IgG4 S228P / kappa chimeric antibody; also called chimeric antibody 023; ES005-023c; not shown: human kappa light chain constant region (pcDNA3.4-hIgGk vector)) VH: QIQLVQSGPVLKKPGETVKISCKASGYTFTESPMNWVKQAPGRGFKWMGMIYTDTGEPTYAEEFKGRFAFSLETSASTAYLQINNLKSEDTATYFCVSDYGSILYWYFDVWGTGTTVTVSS VL: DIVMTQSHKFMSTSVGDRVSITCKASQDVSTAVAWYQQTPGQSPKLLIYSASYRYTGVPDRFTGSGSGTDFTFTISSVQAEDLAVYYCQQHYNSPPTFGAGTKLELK	%	52.9
BAP-050 (antibody, V domains shown, also called BAP-50) VH: QIQLVQSGPELKKPGETVKISCKASGFTLTNYGMNWVRQTPGKGLKWMGWINTDTGEPTYADDFKGRFAFSLETSASTASLQINNLKNADTATYFCARNPPYYYGTNNAEAMDYWGQGTAVTVSS VL: DIQMTQTTSSLSASLGDRVTISCSSSQDISNYLNWYQQKPDGTVKVLIYYTSTLHLGVPSRFSGSGSGTDYSLTISNLELEDIATYYCQQYYNLPWTFGGGTKLEIK	%	39.3
